# TEST_DESCRIPTION: Equilibrium solubility in EPO-solutions, 96-well SORESOS assay
# Assay type: physicochemical
# STATED_CONDITIONS: EPO 0.1%; vs measured solubility in water
PROPERTY_NAME: Non-adjusted SE in EPO 0.1% (in brackets)
API note: the answer field is a bare number with no unit suffix.

{"columns": ["COMPOUND", "ENDPOINT_VALUE"],
 "data": [
  ["CC(C)(C)c1ccc(C(O)CCCN2CCC(C(O)(c3ccccc3)c3ccccc3)CC2)cc1 (centres unmarked) [TFD, terfenadine]", 16.0],
  ["OC(c1cc(C(F)(F)F)nc2c(C(F)(F)F)cccc12)C1CCCCN1 (centres unmarked) [MFQ, mefloquine]", 7.2],
  ["COc1ccccc1OCCNCC(O)COc1cccc2[nH]c3ccccc3c12 (centres unmarked) [CVD, carvedilol]", 24.3]
]}

Here is another compound to look at.
-- ask Given O=c1[nH]c2ccccc2n1C1CCN(CCCC(c2ccc(F)cc2)c2ccc(F)cc2)CC1 [PMZ, Pimozide] , state its recorded Non-adjusted SE in EPO 0.1% (in brackets).
-- reply 12.8

* * *

# TEST_DESCRIPTION: Equilibrium solubility in EPO-solutions, 96-well SORESOS assay
# Type: physicochemical
# STATED_CONDITIONS: EPO 0.1%; vs adjusted solubility in water at pH 6.0
PROPERTY_NAME: Adjusted SE in EPO 0.1%

Take a look at these entries with their results.
{"columns": ["MOLECULE", "Adjusted SE in EPO 0.1%"],
 "data": [
  ["COc1ccccc1OCCNCC(O)COc1cccc2[nH]c3ccccc3c12 (centres unmarked)", 1.7],
  ["O=c1[nH]c2ccccc2n1C1CCN(CCCC(c2ccc(F)cc2)c2ccc(F)cc2)CC1 [PMZ, Pimozide]", 2.0],
  ["C(=C\\c1ccccc1)/CN1CCN(C(c2ccccc2)c2ccccc2)CC1", "2.7 (2.7)"],
  ["CC(C)(C)c1ccc(C(O)CCCN2CCC(C(O)(c3ccccc3)c3ccccc3)CC2)cc1 (centres unmarked)", 2.5]
]}

Here is another molecule to look at.
-- ask Given OC(c1cc(C(F)(F)F)nc2c(C(F)(F)F)cccc12)C1CCCCN1 (centres unmarked) , state its recorded Adjusted SE in EPO 0.1%.
-- reply 0.2

* * *

# TEST_DESCRIPTION: Drug solubility in water (aqueous solubility)
# Type: physicochemical
# STATED_CONDITIONS: thermodynamic from solid, neutral model compounds, n = 3
PROPERTY_NAME: solubility (µg/mL)
Dear colleague, please return just the value in µg/mL, with no unit written.

-- ask Given CCOC(=O)C1=C(C)NC(C)=C(C(=O)OC)C1c1cccc(Cl)c1Cl (stereo not shown) [FLP, felodipine] , state its recorded solubility.
-- reply 0.4

* * *

# TEST_DESCRIPTION: Equilibrium solubility in EPO-solutions, 96-well SORESOS assay
# Format: physicochemical
# STATED_CONDITIONS: EPO 4.0%; vs adjusted solubility in water at pH 6.0
Entries annotated with measured Adjusted SE in EPO 4.0%
API note: the answer field is a bare number with no unit suffix.

Take a look at these entries with their results.
{"columns": ["COMPOUND", "ENDPOINT_VALUE"],
 "data": [
  ["OC(c1cc(C(F)(F)F)nc2c(C(F)(F)F)cccc12)C1CCCCN1 (centres unmarked) [MFQ, mefloquine]", 4.4],
  ["COc1ccccc1OCCNCC(O)COc1cccc2[nH]c3ccccc3c12 (centres unmarked) [CVD, carvedilol]", 10.6],
  ["CC(C)(C)c1ccc(C(O)CCCN2CCC(C(O)(c3ccccc3)c3ccccc3)CC2)cc1 (centres unmarked) [TFD, terfenadine]", 14.6]
]}

Here is another compound to look at.
-- ask Given O=c1[nH]c2ccccc2n1C1CCN(CCCC(c2ccc(F)cc2)c2ccc(F)cc2)CC1 [PMZ, Pimozide] , state its recorded Adjusted SE in EPO 4.0%.
-- reply 9.3

* * *

# TEST_DESCRIPTION: Equilibrium solubility in EPO-solutions, 96-well SORESOS assay
# Assay type: physicochemical
# STATED_CONDITIONS: EPO 0.5%; vs adjusted solubility in water at pH 6.0
Entries annotated with measured Adjusted SE in EPO 0.5%
API note: the answer field is a bare number with no unit suffix.

{"columns": ["COMPOUND", "Adjusted SE in EPO 0.5%"],
 "data": [
  ["CC(C)(C)c1ccc(C(O)CCCN2CCC(C(O)(c3ccccc3)c3ccccc3)CC2)cc1 (centres unmarked) [TFD, terfenadine]", 6.6],
  ["OC(c1cc(C(F)(F)F)nc2c(C(F)(F)F)cccc12)C1CCCCN1 (centres unmarked) [MFQ, mefloquine]", 1.0],
  ["O=c1[nH]c2ccccc2n1C1CCN(CCCC(c2ccc(F)cc2)c2ccc(F)cc2)CC1 [PMZ, Pimozide]", 5.4]
]}

Here is another compound to look at.
-- ask Given COc1ccccc1OCCNCC(O)COc1cccc2[nH]c3ccccc3c12 (centres unmarked) [CVD, carvedilol] , state its recorded Adjusted SE in EPO 0.5%.
-- reply 6.7

* * *

# TEST_DESCRIPTION: Equilibrium solubility in EPO-solutions, 96-well SORESOS assay
# Assay type: physicochemical
# STATED_CONDITIONS: EPO 2.0%; vs measured solubility in water
PROPERTY_NAME: Non-adjusted SE in EPO 2.0% (in brackets)
API note: the answer field is a bare number with no unit suffix.

Take a look at these entries with their results.
{"columns": ["COMPOUND", "ENDPOINT_VALUE"],
 "data": [
  ["O=c1[nH]c2ccccc2n1C1CCN(CCCC(c2ccc(F)cc2)c2ccc(F)cc2)CC1 [PMZ, Pimozide]", 45.0],
  ["CC(C)(C)c1ccc(C(O)CCCN2CCC(C(O)(c3ccccc3)c3ccccc3)CC2)cc1 (stereo not shown)", 76.2]
]}

-- ask Given COc1ccccc1OCCNCC(O)COc1cccc2[nH]c3ccccc3c12 (stereo not shown) , state its recorded Non-adjusted SE in EPO 2.0% (in brackets).
-- reply 152.3

* * *

# TEST_DESCRIPTION: Equilibrium solubility in EPO-solutions, 96-well SORESOS assay
# Assay type: physicochemical
# STATED_CONDITIONS: EPO 3.0%; vs adjusted solubility in water at pH 6.0
Entries annotated with measured Adjusted SE in EPO 3.0%
API note: the answer field is a bare number with no unit suffix.

Take a look at these entries with their results.
{"columns": ["COMPOUND", "PROPERTY_NAME", "ENDPOINT_VALUE"],
 "data": [
  ["OC(c1cc(C(F)(F)F)nc2c(C(F)(F)F)cccc12)C1CCCCN1 (centres unmarked) [MFQ, mefloquine]", "Adjusted SE in EPO 3.0%", 3.6],
  ["CC(C)(C)c1ccc(C(O)CCCN2CCC(C(O)(c3ccccc3)c3ccccc3)CC2)cc1 (centres unmarked) [TFD, terfenadine]", "Adjusted SE in EPO 3.0%", 15.3],
  ["O=c1[nH]c2ccccc2n1C1CCN(CCCC(c2ccc(F)cc2)c2ccc(F)cc2)CC1 [PMZ, Pimozide]", "Adjusted SE in EPO 3.0%", 8.5]
]}

Here is another compound to look at.
-- ask Given COc1ccccc1OCCNCC(O)COc1cccc2[nH]c3ccccc3c12 (centres unmarked) [CVD, carvedilol] , state its recorded Adjusted SE in EPO 3.0%.
-- reply 11.1

* * *

# TEST_DESCRIPTION: Equilibrium solubility in EPO-solutions, 96-well SORESOS assay
# Assay type: physicochemical
# STATED_CONDITIONS: EPO 0.5%; vs measured solubility in water
# Experimental: Polymer solutions were prepared by dissolving EPO (0.1%, 0.5%, 1%, 2%, 3%, 4%, 5% (w/w)) in deionized water and adjusting all solutions to pH 6.0 by hydrochloric acid and sodium hydroxide at 25° C. Solutions were checked carefully for absence of particles. […]
PROPERTY_NAME: Non-adjusted SE in EPO 0.5% (in brackets)

Take a look at these entries with their results.
{"columns": ["COMPOUND", "ENDPOINT_VALUE"],
 "data": [
  ["COc1ccccc1OCCNCC(O)COc1cccc2[nH]c3ccccc3c12 (centres unmarked)", 94.9],
  ["OC(c1cc(C(F)(F)F)nc2c(C(F)(F)F)cccc12)C1CCCCN1 (centres unmarked)", 37.3],
  ["O=c1[nH]c2ccccc2n1C1CCN(CCCC(c2ccc(F)cc2)c2ccc(F)cc2)CC1 [PMZ, Pimozide]", 35.3],
  ["CC(C)(C)c1ccc(C(O)CCCN2CCC(C(O)(c3ccccc3)c3ccccc3)CC2)cc1 (centres unmarked)", 43.2]
]}

Here is another compound to look at.
-- ask Given C(=C\c1ccccc1)/CN1CCN(C(c2ccccc2)c2ccccc2)CC1 , state its recorded Non-adjusted SE in EPO 0.5% (in brackets).
-- reply 10.3 (10.3)

Cited source for all entries: patent US11491109B2
